Listed here are molecules together with their documented inhibition at 10 µM.
- Experimental system: JAK2 kinase domain (JH1) (Homo sapiens (Human), UniProt O60674)
- Sequence (O60674 849-1124): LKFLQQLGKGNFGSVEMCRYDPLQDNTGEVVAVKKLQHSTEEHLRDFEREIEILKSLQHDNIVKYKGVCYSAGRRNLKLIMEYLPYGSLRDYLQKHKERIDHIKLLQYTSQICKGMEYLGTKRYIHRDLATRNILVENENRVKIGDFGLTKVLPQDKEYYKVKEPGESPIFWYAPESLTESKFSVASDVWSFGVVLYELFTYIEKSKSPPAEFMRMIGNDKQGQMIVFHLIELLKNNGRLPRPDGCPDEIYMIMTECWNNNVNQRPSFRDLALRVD
- Protocol: JAK2 Radioactive Kinase Assay
- Format: biochemical
- Cond: compound at 10 μM; ATP at 10 μM; substrate poly[Glu:Tyr](4:1)

- Molecule: "CNC(=O)c1cnc(NC(=O)C2CC2)c2[nH]c(-c3cc(-c4nccs4)cnc3OC3CC3)cc12 [Compound I-39]"
  inhibition at 10 µM: "< 50%"
- Molecule: "[2H]C([2H])([2H])NC(=O)c1cnc(NC(=O)C2CC2)c2[nH]c(-c3ccccc3)cc12 [Compound I-3]"
  inhibition at 10 µM: "< 50%"
- Molecule: "[2H]C([2H])([2H])NC(=O)c1cnc(NC(=O)C2CC2)c2[nH]c(-c3cc(-c4ncn(C)n4)ccn3)cc12 [Compound I-16]"
  inhibition at 10 µM: "< 50%"

We now examine a further molecule.
Specify reported inhibition at 10 µM for the molecule shown: CNC(=O)c1ccc(-c2cc3c(C(=O)NC)cnc(NC(=O)C4CC4)c3[nH]2)c(OC)c1 [Compound I-29]
< 50%

---

- Experimental system: TYK2 kinase domain (JH1) (Homo sapiens (Human), UniProt P29597)
- Sequence (P29597 897-1176): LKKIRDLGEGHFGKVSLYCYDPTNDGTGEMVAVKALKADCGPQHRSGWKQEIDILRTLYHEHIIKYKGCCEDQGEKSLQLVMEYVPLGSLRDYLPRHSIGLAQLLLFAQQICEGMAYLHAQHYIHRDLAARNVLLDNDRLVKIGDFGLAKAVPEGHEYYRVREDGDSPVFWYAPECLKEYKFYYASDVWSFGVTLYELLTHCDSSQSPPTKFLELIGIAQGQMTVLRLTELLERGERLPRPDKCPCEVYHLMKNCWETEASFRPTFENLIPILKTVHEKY
- Protocol: TYK2 Radioactive Kinase Assay
- Type: biochemical
- Cond: compound at 10 μM; ATP at 10 μM; 120 min at room temp
Endpoint label: inhibition at 10 µM

- Molecule: "CCOc1ncc(-c2ccn(C)n2)cc1-c1cc2c(C(=O)NC)cnc(NC(=O)C3CC3)c2[nH]1 [Compound I-37]"
  inhibition at 10 µM: "< 50%"
- Molecule: "CNC(=O)c1cnc(NC(=O)C2CC2)c2[nH]c(-c3cccc(-c4nc(C)n(C)n4)c3)cc12 [Compound I-28]"
  inhibition at 10 µM: "< 50%"

Input CNC(=O)c1cnc(NC(=O)C2CC2)c2[nH]c(-c3cccc(-n4cnnc4)c3)cc12 [Compound I-18] , output reported inhibition at 10 µM.
< 50%

---

# Kd annotations
- Experimental system: human TYK2 (JH2domain-pseudokinase) (Homo sapiens (Human), UniProt P29597)
- Sequence (P29597 556-888): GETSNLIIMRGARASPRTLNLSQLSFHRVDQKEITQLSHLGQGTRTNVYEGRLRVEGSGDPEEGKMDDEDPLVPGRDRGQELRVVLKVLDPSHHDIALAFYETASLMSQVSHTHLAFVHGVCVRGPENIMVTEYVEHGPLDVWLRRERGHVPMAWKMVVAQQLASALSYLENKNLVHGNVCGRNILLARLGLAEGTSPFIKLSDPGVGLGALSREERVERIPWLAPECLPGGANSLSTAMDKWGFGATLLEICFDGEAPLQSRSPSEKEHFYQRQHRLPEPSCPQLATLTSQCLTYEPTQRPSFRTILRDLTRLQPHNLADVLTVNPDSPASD
- Protocol: TYK2 JH2 Domain Binding Assay (KINOMEscan)
- Cond: 11-point 3-fold dilution, top concentration 30,000 nM, duplicate

- Molecular string: "CCn1cc(-c2cc3c(C(=O)NC)cnc(NC(=O)C4CC4)c3[nH]2)ccc1=O"
  Experimental system: "human TYK2 (JH2domain-pseudokinase) (Homo sapiens (Human), UniProt P29597)"
  Kd: "1 to 10 nM"

Report Kd under test system human TYK2 (JH2domain-pseudokinase) (Homo sapiens (Human), UniProt P29597) for CCOc1cc(-c2nccn2C)cc(F)c1-c1cc2c(C(=O)NC)cnc(NC(=O)C3CC3)c2[nH]1 .
< 0.2 nM

---

- Experimental system: human TYK2 (JH2domain-pseudokinase) (Homo sapiens (Human), UniProt P29597)
- Protocol: TYK2 JH2 Domain Binding Assay (KINOMEscan)
- Cond: 11-point 3-fold dilution, top concentration 30,000 nM, duplicate
- Protocol: Binding constants for compounds of the present invention against the JH2 domain were determined by the following protocol for a KINOMEscan® assay (DiscoveRx). […] The TYK2(JH2domain-pseudokinase) fusion protein was labeled with a chimeric double-stranded DNA tag containing the NFkB binding site (5′-GGGAATTCCC-3′) fused to an amplicon for qPCR readout, which was added directly to the expression extract (the final concentration of DNA-tag in the binding reaction is 0.1 nM). […]
pKd: −log10 of the molar value.
Each record here notes measured pKd.

- Molecule: "CNC(=O)c1cnc(NC(=O)C2CC2)c2[nH]c(-c3ccc(-n4ncnc4C)cc3F)cc12"
  pKd: "> 9.70"
- Molecule: "CNC(=O)CCCNc1ccc(-c2cc3c(C(=O)NC)cnc(NC(=O)C4CC4)c3[nH]2)c(OC)c1"
  pKd: "> 9.70"
- Molecule: "CNC(=O)c1cnc(NC(=O)C2CC2)c2[nH]c(-c3cccc(C4=NC(C)(C)CS4)c3)cc12"
  pKd: "9.00 to 9.70"

Given the molecule CNC(=O)c1cnc(NC(=O)C2CC2)c2[nH]c(-c3ccc(-c4ncc5n4CCCC5)cc3F)cc12 , write its reported pKd.
> 9.70

Report pKd, nothing else, for this molecule: CNC(=O)c1cnc(NC(=O)C2CC2)c2[nH]c(-c3ccc(C(=O)N4CC(F)(F)C4)cn3)cc12
9.00 to 9.70

Supply recorded pKd for CNC(=O)c1cnc(NC(=O)C2CC2)c2[nH]c(-c3cccc(-c4cnc(C)o4)c3F)cc12 here.
> 9.70
